ASSAY_TARGET: TYK2 (Homo sapiens (Human))
ASSAY_DETAILS: JAK Caliper Enzyme Assay at 1 mM ATP, TYK2
Format: biochemical
CONDITIONS_USED: JAK Caliper enzyme assay
PROPERTY: log10(IC50) (log10 of the value in nM)
Annotation: log10 of IC50, nM basis.

Example compounds with recorded log10(IC50):
COMPOUND	PROPERTY	VALUE_MEASURED
N#CCC1(n2ncc(-c3cc(-c4cccc5c4NC(=O)C5)cc4ncccc34)n2)CC(C#N)C1 (stereo not shown)	log10(IC50)	3.15
N#CC[C@]1(n2ncc(-c3cc(-c4cnc(N)cn4)cc4ncccc34)n2)C[C@H](C#N)C1	log10(IC50)	3.38
Cn1cc(-c2cc(-c3cnn(C4(CC#N)CC(C#N)C4)n3)n3ccnc3c2)cn1 (stereo not shown)	log10(IC50)	3.05
CN1C(=O)COc2ccc(-c3cc(-c4cnn([C@]5(CC#N)C[C@H](C#N)C5)n4)c4cccnc4c3)nc21	log10(IC50)	1.08
CS(=O)(=O)N1CC(CC#N)(n2ncc(-c3cc(-c4ccc(F)c(CO)c4)cc4ncccc34)n2)C1	log10(IC50)	2.00

Qu. If you can, please state the reported log10(IC50) value of Cn1cc(-c2cc3nccnc3c(-c3cnn(C4(CC#N)CN(CC(F)(F)F)C4)c3)n2)cn1 .
Ans. 1.04

Qu. Ok, now Cn1cc(-c2cc3nccnc3c(-c3ccn(C4(CC#N)CN(CC#N)C4)n3)n2)cn1
Ans. 3.14

----------
ASSAY_TARGET: TYK2 (Homo sapiens (Human), UniProt P29597)
Sequence (P29597 897-1176): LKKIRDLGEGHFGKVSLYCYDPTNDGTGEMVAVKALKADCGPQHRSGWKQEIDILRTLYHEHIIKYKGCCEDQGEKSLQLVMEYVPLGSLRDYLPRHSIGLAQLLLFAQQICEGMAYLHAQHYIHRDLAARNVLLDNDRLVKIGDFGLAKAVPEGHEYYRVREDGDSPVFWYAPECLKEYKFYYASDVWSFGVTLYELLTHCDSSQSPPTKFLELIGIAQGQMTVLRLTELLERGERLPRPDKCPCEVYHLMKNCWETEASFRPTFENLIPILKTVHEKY
ASSAY_DETAILS: JAK Caliper Enzyme Assay at 1 mM ATP, TYK2
Type: biochemical
Catalogue of pIC50 values
Worth noting: pIC50 values are minus log10 of concentrations stated in mol/L.

SMILES_DATA	PROPERTY	VALUE_MEASURED
N#CC[C@]1(n2ncc(-c3cc(-c4c[nH]nc4CO)cc4ncccc34)n2)C[C@H](C#N)C1	pIC50	7.24
Cn1cc(-c2cc3ncccc3c(-c3cnn(C4(CC#N)CN(CC(F)(F)F)C4)c3)n2)cn1	pIC50	7.77
N#CC[C@]1(n2ccc(-c3nc(-c4ccn[nH]4)cc4ncccc34)n2)C[C@H](C#N)C1	pIC50	7.60

Qu. If you can, please state the reported pIC50 value of CC(=O)Nc1cc(-c2cc3ncccc3c(-c3ccn(C4(CC#N)CN(S(C)(=O)=O)C4)n3)n2)cnc1NC(C)=O .
Ans. 6.02

Qu. Ok, now N#CCC1(n2ccc(-c3nc(-c4cnn(C5COC5)c4)cc4ncccc34)n2)CN(CC(F)(F)F)C1
Ans. 7.54

Qu. Ok, now CCS(=O)(=O)N1CC(CC#N)(n2ccc(-c3nc(-c4cnn(C)c4)cc4ncccc34)n2)C1
Ans. 7.41

Qu. Ok, now CCN1CC(CC#N)(n2ccc(-c3nc(-c4cc(CO)[nH]n4)cc4ncccc34)n2)C1
Ans. 6.60

Qu. Ok, now C[C@]1(C#N)C[C@](CC#N)(n2ccc(-c3nc(-c4cn[nH]c4)cc4ncccc34)n2)C1
Ans. 6.39

----------
ASSAY_TARGET: JAK1 (Homo sapiens (Human), UniProt P23458)
Sequence (P23458 875-1153): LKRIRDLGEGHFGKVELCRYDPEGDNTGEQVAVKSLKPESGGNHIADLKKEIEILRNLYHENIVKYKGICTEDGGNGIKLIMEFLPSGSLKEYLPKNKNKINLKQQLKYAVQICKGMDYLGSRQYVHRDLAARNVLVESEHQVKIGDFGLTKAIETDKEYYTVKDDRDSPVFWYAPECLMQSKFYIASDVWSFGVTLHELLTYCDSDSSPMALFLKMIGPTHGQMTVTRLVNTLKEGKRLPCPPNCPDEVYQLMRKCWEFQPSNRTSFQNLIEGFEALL
ASSAY_DETAILS: JAK Caliper Enzyme Assay at 1 mM ATP, JAK1
Format: biochemical
Catalogue of pIC50 values
Worth noting: pIC50 values are minus log10 of concentrations stated in mol/L.

MOLECULE	pIC50
Cc1cc(-c2cc3ncccc3c(-c3ccn([C@]4(CC#N)C[C@H](C#N)C4)n3)n2)n[nH]1 [Example 44]	7.18
Cc1nc(-c2cc3ncccc3c(-c3ccn(C4(CC#N)CN(CC(F)(F)F)C4)n3)n2)c[nH]1 [Example 150]	5.01
N#CCC1(n2ccc(-c3nc(-c4ccn[nH]4)cc4ncccc34)n2)CN(S(=O)(=O)C2COC2)C1 [Example 19]	6.76

Qu. If you can, please state the reported pIC50 value of Cc1cc(-c2cc(-c3cc[nH]n3)cc3ncccc23)nn1C1(CC#N)CN(S(C)(=O)=O)C1 [Example 293] .
Ans. 5.09

Qu. Ok, now N#CCC1(n2ccc(-c3nc(-c4ccn[nH]4)cc4ncccc34)n2)CC(C#N)C1 (stereo not drawn) [Example 21]
Ans. 7.15

Qu. Ok, now CS(=O)(=O)N1CC(CC#N)(n2ncc(-c3cc(-c4ccc(N)nc4)cc4ncccc34)n2)C1 [Example 364]
Ans. 5.53
